- system_name: Jack bean (Canavalia ensiformis) urease (Canavalia ensiformis, UniProt P07374)
- Sequence (P07374 whole entry, looked up): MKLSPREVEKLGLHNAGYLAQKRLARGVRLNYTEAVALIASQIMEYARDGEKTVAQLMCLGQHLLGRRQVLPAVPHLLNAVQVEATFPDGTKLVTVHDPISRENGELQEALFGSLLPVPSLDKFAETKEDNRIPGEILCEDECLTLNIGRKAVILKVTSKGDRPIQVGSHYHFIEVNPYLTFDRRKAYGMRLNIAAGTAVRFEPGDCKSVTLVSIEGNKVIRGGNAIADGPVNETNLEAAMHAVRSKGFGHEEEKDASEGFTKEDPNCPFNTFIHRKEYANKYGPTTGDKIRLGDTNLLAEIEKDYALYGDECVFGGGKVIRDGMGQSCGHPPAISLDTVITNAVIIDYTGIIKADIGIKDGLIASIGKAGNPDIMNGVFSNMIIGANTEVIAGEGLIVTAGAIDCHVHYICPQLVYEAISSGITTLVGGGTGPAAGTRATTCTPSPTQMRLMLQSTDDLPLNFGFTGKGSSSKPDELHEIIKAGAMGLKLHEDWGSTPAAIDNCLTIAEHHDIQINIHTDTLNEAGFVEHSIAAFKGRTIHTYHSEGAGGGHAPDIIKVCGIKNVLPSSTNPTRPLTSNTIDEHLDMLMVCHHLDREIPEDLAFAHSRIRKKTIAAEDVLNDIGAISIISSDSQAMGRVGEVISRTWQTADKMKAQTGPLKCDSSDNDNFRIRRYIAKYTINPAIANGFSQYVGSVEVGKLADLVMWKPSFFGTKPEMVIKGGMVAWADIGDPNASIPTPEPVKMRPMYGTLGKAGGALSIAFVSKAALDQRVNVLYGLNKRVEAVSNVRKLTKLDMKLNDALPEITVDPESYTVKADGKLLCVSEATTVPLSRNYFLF
- experiment_notes: biochemical
pIC50: −log10 of the molar value.

| record_smiles | system_name | pIC50 |
| --- | --- | --- |
| CCCN(CCC)CCc1cccc2c1CC(=O)N2 | Jack bean (Canavalia ensiformis) urease (Canavalia ensiformis, UniProt P07374) | 4.93 |
